- assayProcedure: Cell viability of uninfected human foreskin fibroblast drug control wells
- Format: cell-based
- condition: uninfected human foreskin fibroblast cells; read-out: Cytotoxic Conc. (IC50) Cell Growth
assayMetric: IC50 (µg/mL)
Response body: numeric value in µg/mL, unit text excluded.

Per the records, this compound ( CCCCCCCCCCOC(CNC(=O)CCCCCCCCC)COP(=O)([O-])OCC[N+](C)(C)C (stereo not shown) ) has IC50 equal to 75

Cited source: patent US20100273740A1
